Value source: patent US20070155720A1

TEST TARGET: D4 receptor (Rattus norvegicus)
TEST METHOD NOTES: Inhibition of forskolin-stimulated adenylate cyclase through D4 receptors in CHO cells
Type: cell-based
CONDITION NOTES: read-out: EC50 (nM) ± SEM, D4, inhibition of forskolin-stimulated AC, mean ± SEM, at least three experiments
MEASURED ATTRIBUTE: EC50 (nM)
One number for each entry, in nM.

Short answer please: EC50, D4 receptor (Rattus norvegicus), entry NCCc1ccc(O)c(O)c1 [dopamine]
1750

---

TEST TARGET: D1 receptors (Rattus norvegicus, UniProt P18901)
Construct: utilizing rat brain striatal homogenates having D1 and D2 receptors; from tissue; host or cells: rat brain striatum homogenate
Sequence (P18901 whole entry): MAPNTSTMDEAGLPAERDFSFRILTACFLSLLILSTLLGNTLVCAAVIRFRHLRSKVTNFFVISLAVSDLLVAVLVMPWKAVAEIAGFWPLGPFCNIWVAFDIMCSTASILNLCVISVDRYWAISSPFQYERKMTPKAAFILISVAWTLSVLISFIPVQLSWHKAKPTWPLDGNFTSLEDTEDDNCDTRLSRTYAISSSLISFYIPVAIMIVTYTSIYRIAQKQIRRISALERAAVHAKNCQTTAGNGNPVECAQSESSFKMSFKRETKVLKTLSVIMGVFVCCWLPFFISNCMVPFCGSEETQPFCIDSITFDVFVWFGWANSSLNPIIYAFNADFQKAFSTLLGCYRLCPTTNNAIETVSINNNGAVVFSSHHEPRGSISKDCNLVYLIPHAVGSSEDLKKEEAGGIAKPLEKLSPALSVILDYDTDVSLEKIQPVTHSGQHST
TEST METHOD NOTES: Affinity for D1 receptors in rat brain striatal homogenates labeled with 3H-SCH 23390
Type: binding
MEASURED ATTRIBUTE: Ki (nM)
Answers are plain numbers, in nM.

Short answer please: Ki, D1 receptors (Rattus norvegicus, UniProt P18901), entry Cc1ccc2c(c1)CN[C@H]1CCc3cc(O)c(O)cc3[C@H]21.Cl (relative stereo) [Compound 6c, hydrochloride]
7
